molecular target: canine FcRn complex (FcRn-alpha subunit and beta-microglobulin), His-tagged, biotin labeled (canine); assay: SPR (Biacore), biotin-FcRn captured on SA surface, IgG flowed over, pH 6, 15 C
// Kd lookup, one value per entry

[
  {
    "Binder": "canine IgGB (65) mAb with mutation Q311R (antibody, part only; not given: Variable domains, not shown: another chain or arm of the molecule) constant: ASTTAPSVFPLAPSCGSTSGSTVALACLVSGYFPEPVTVSWNSGSLTSGVHTFPSVLQSSGLYSLSSMVTVPSSRWPSETFTCNVAHPASKTKVDKPVPKRENGRVPRPPDCPKCPAPEMLGGPSVFIFPPKPKDTLLIARTPEVTCVVVDLDPEDPEVQISWFVDGKQMQTAKTQPREEQFNGTYRVVSVLPIGHRDWLKGKQFTCKVNNKALPSPIERTISKARGQAHQPSVYVLPPSREELSKNTVSLTCLIKDFFPPDIDVEWQSNGQQEPESKYRTTPPQLDEDGSYFLYSKLSVDKSRWQRGDTFICAVMHEALHNHYTQESLSHSPGK",
    "Kd / nM": 15.2
  },
  {
    "Binder": "canine IgGB (65) mAb with mutation D312K (antibody, part only; not given: variable domains of unnamed mAb, not shown: another chain or arm of the molecule) constant: ASTTAPSVFPLAPSCGSTSGSTVALACLVSGYFPEPVTVSWNSGSLTSGVHTFPSVLQSSGLYSLSSMVTVPSSRWPSETFTCNVAHPASKTKVDKPVPKRENGRVPRPPDCPKCPAPEMLGGPSVFIFPPKPKDTLLIARTPEVTCVVVDLDPEDPEVQISWFVDGKQMQTAKTQPREEQFNGTYRVVSVLPIGHQKWLKGKQFTCKVNNKALPSPIERTISKARGQAHQPSVYVLPPSREELSKNTVSLTCLIKDFFPPDIDVEWQSNGQQEPESKYRTTPPQLDEDGSYFLYSKLSVDKSRWQRGDTFICAVMHEALHNHYTQESLSHSPGK",
    "Kd / nM": 24
  }
]
